target entity: Genome polyprotein (dengue virus type 2)
Sequence (P29990 1346-1475 limits assumed): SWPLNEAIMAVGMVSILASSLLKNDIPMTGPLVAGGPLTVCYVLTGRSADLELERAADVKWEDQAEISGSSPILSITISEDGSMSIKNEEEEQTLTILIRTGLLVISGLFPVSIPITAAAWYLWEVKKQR
Sequence (P29990 1476-2093 limits assumed): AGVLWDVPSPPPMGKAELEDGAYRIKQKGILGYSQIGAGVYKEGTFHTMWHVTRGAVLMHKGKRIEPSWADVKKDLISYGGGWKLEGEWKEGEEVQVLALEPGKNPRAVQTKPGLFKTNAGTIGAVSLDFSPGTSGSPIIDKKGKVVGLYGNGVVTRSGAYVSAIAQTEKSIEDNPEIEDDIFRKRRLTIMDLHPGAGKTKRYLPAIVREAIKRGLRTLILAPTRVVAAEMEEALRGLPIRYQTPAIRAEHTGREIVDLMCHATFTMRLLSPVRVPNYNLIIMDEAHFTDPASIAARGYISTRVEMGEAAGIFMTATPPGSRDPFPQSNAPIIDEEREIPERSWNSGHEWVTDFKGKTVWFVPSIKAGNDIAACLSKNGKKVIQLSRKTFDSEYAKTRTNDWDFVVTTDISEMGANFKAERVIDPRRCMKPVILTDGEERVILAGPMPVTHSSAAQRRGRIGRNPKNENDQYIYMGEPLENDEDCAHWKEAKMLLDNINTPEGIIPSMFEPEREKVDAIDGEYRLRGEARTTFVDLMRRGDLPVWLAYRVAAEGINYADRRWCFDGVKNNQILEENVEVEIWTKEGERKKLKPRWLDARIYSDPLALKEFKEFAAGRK
Type: functional, Thailand/16681/1984
quantity name: IC50

In [3]: df
Out[3]:
                           substance_smiles                             target_entity  observed_measurement
0  Cc1oc(C2CC2)nc1C(=O)Nc1cc(-c2cccnc2)ccn1  Genome polyprotein (dengue virus type 2)              > 100 µM
1    CC(C)c1ccc(Cl)cc1C(=O)Nc1ccc2c(c1)CNC2  Genome polyprotein (dengue virus type 2)              > 100 µM
2  O=C(Nc1cc(Cl)cc(C(=O)Nc2ccc(C3CCNCC3)cc2)c1)OCc1ccccc1  Genome polyprotein (dengue virus type 2)               41.3 µM
3  C#C[C@H](Nc1cc([C@H]2CCOC2)ccn1)c1cc(C2CC2)n(C)n1  Genome polyprotein (dengue virus type 2)              > 100 µM
4  CN1CCC(COc2cccc([C@H](NC(=O)OCc3ccccc3)C(=O)Nc3cccc(CN)c3)c2)CC1  Genome polyprotein (dengue virus type 2)              > 100 µM

## Input Find the recorded IC50 belonging to N#C[C@H](Nc1ccc(CCC(=O)O)cn1)c1cc(Cl)cc(C2CC2)c1 and report it.
## Output > 100 µM

## Input Find the recorded IC50 belonging to O=C(Nc1ccc2c(c1)CNC2)c1cc(Cl)cc2[nH]c(CCc3cccnc3)nc12 and report it.
## Output > 100 µM

## Input Find the recorded IC50 belonging to NCc1cccc(NC(=O)c2cc(Cl)ccc2OC2CCCC2)c1 and report it.
## Output > 100 µM

## Input Find the recorded IC50 belonging to O=C(Nc1cc(Cl)cc(-c2cc3cc(C(=O)O)ncn3c2)c1)OCc1ccccc1 and report it.
## Output 50.1 µM

## Input Find the recorded IC50 belonging to Cc1ccc(Sc2ncccc2C(=O)Nc2cccc(CN)c2)cc1C and report it.
## Output > 100 µM

Data origin: ChEMBL document CHEMBL5604063
